Source: patent US20230414598A1

# TEST_METHOD_NOTES: Pharmacokinetic analysis of compound 23 plasma concentrations in patients (LC-MS/MS, non-compartmental)
# Format: in vivo, human
# CONDITION_PARAMETERS: human; Cycle 1 Day 1, 25 mg once daily (n = 6), plasma, mean
EXPERIMENTAL_READOUT: half-life (h)
Answers are plain numbers, in h.

Which measured half-life value corresponds to C[C@H]1CCCN(Cc2cc3c(c(C(F)(F)F)c2)CN(c2cccc([C@]4(c5nncn5C)C[C@@H](C)C4)c2)C3=O)C1 ? 6.82

----------
# TEST_METHOD_NOTES: Pharmacokinetic analysis of compound 23 plasma concentrations in patients (LC-MS/MS, non-compartmental)
# Assay type: in vivo, human
# CONDITION_PARAMETERS: human; Cycle 1 Day 1, 15 mg once daily (n = 9), plasma, mean
EXPERIMENTAL_READOUT: half-life (h)
One number for each entry, in h.

Which measured half-life value corresponds to C[C@H]1CCCN(Cc2cc3c(c(C(F)(F)F)c2)CN(c2cccc([C@]4(c5nncn5C)C[C@@H](C)C4)c2)C3=O)C1 [Compound 23] ? 7.14

----------
# TEST_METHOD_NOTES: Pharmacokinetic analysis of compound 23 plasma concentrations in patients (LC-MS/MS, non-compartmental)
# Format: in vivo, human
# CONDITION_PARAMETERS: human; Cycle 1 Day 1, 5 mg once daily (n = 1), plasma, median
EXPERIMENTAL_READOUT: Tmax (h)
Numbers only, in h.

Which measured Tmax value corresponds to C[C@H]1CCCN(Cc2cc3c(c(C(F)(F)F)c2)CN(c2cccc([C@]4(c5nncn5C)C[C@@H](C)C4)c2)C3=O)C1 [Compound 23] ? 2

----------
# TEST_METHOD_NOTES: Pharmacokinetic analysis of compound 23 plasma concentrations in patients (LC-MS/MS, non-compartmental)
# Format: in vivo, human
# CONDITION_PARAMETERS: human; Cycle 1 Day 1, 25 mg once daily (n = 6), plasma, geometric mean
EXPERIMENTAL_READOUT: AUC(0-t)

Which measured AUC(0-t) value corresponds to C[C@H]1CCCN(Cc2cc3c(c(C(F)(F)F)c2)CN(c2cccc([C@]4(c5nncn5C)C[C@@H](C)C4)c2)C3=O)C1 [Compound 23] ? 201 ng·h/mL

----------
# TEST_METHOD_NOTES: Pharmacokinetic analysis of compound 23 plasma concentrations in patients (LC-MS/MS, non-compartmental)
# Assay type: in vivo, human
# CONDITION_PARAMETERS: human; Cycle 1 Day 1, 25 mg once daily (n = 6), plasma, median
EXPERIMENTAL_READOUT: Tmax
Answer with the figure and its unit, nothing else.

Which measured Tmax value corresponds to C[C@H]1CCCN(Cc2cc3c(c(C(F)(F)F)c2)CN(c2cccc([C@]4(c5nncn5C)C[C@@H](C)C4)c2)C3=O)C1 ? 1.5 h

----------
# TEST_METHOD_NOTES: Pharmacokinetic analysis of compound 23 plasma concentrations in patients (LC-MS/MS, non-compartmental)
# Assay type: in vivo, human
# CONDITION_PARAMETERS: human; Cycle 1 Day 1, 5 mg once daily (n = 1), plasma, geometric mean
EXPERIMENTAL_READOUT: AUC(0-t) (ng·h/mL)
Give bare numbers, in ng·h/mL.

Which measured AUC(0-t) value corresponds to C[C@H]1CCCN(Cc2cc3c(c(C(F)(F)F)c2)CN(c2cccc([C@]4(c5nncn5C)C[C@@H](C)C4)c2)C3=O)C1 ? 26.2
